Overview of reported pIC50 across a group of compounds:
- STUDY_SYSTEM: IGF-1R (Homo sapiens)
- Construct: expressed in transfected cells
- Sequence (P08069 31-1367): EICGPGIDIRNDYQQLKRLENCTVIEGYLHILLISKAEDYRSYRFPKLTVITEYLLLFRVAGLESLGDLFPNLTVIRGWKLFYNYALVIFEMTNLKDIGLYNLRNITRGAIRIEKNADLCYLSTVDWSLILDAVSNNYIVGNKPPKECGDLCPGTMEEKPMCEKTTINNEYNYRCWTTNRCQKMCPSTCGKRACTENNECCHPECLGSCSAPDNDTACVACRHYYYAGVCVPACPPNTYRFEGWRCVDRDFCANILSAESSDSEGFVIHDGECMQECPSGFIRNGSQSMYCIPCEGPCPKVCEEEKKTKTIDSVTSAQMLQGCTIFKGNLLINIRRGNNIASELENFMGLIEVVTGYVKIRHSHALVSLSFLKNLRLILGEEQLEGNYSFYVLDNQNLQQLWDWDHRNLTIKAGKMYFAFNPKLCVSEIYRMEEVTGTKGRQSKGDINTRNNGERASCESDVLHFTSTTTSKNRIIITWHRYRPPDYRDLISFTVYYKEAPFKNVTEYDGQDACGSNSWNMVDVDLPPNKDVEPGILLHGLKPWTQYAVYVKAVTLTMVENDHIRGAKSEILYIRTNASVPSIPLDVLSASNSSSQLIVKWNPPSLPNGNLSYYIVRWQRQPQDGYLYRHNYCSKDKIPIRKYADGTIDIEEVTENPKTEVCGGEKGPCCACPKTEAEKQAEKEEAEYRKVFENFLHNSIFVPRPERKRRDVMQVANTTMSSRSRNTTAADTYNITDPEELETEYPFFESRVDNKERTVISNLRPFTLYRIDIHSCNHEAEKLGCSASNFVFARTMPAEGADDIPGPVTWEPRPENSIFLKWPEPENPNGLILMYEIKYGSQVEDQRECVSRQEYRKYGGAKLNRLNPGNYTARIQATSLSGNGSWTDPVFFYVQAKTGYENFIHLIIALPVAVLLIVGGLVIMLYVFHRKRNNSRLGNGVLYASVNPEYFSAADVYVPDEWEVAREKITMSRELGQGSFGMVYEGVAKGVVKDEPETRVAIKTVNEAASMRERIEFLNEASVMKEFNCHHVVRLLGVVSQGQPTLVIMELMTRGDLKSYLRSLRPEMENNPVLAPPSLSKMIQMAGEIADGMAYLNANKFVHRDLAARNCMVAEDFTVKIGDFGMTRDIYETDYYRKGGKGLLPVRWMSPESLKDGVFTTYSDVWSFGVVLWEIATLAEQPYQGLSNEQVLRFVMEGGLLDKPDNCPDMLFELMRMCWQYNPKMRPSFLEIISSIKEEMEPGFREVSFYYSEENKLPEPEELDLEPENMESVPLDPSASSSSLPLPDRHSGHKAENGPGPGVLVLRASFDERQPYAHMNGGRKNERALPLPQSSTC
- TEST: Example B-2: IGF-1R Assay (PathHunter cell lines, EC80 agonist challenge, chemiluminescent detection)
- Type: cell-based
- TEST_CONDITIONS: PathHunter cells, compound 60 minutes at 37° C., EC80 agonist 3 hours; read-out: IC50, Biological Activity against IGF-1R (Table B2)
pIC50: −log10 of the molar value.
METRIC_NAME: pIC50

- CC1(C)C(=O)N(c2ccc(C3(C(F)(F)F)CC3)cc2)C(=O)N1Cc1ccnc(NC2CS(=O)(=O)C2)c1: 5.70 to 6.30
- COC[C@@H]1COc2c(CN3C(=O)N(c4ccc(C5(C(F)(F)F)CC5)cc4)C(=O)C3(C)C)ccnc2N1: ≥ 6.30
- CC1(C)CN(S(C)(=O)=O)c2cc(N3C(=O)N(Cc4ccnc(N[C@H]5[C@@H]6COC[C@@H]65)c4)C(C)(C)C3=O)ccc21: ≥ 6.30
- CC1COCCC1Nc1cc(CN2C(=O)N(c3ccc(C4(C(F)(F)F)CC4)cc3)C(=O)C2(C)C)ccn1 (stereo not shown): ≥ 6.30
